Below, each entry is listed with its recorded GI50.
System: KM12
Test: NCI60 five-dose screen, Colon Cancer
Assay type: cell-based
Details: Homo sapiens; KM12, Colon Cancer; five-dose screen; read-out: GI50

| COMPOUND | GI50 [µM] |
| --- | --- |
| CC[C@]12C=CCN3CC[C@@]4(c5ccc(OC)cc5N(C)[C@H]4[C@@](O)(C(=O)OC)[C@@H]1OC(=O)CCC(=O)N1CCN(Cc4ccc(C(F)(F)F)cc4)CC1)[C@@H]32 | 11.8 |
| CC[C@]12C=CCN3CC[C@@]4(c5ccc(OC)cc5N(C)[C@H]4[C@@](O)(C(=O)OC)[C@@H]1OC(=O)CCCN1CCN(Cc4ccc(C(F)(F)F)cc4)CC1)[C@@H]32 | 1.74 |
| CC[C@]12C=CCN3CC[C@@]4(c5ccc(OC)cc5N(C)[C@H]4[C@@](O)(C(=O)OC)[C@@H]1OC(=O)CCC(=O)N1CCN(c4ccc(C(F)(F)F)cc4)CC1)[C@@H]32 | 4.79 |
| CCC12C=CCN3CCC4(c5cc(NC(=O)CN6CCN(c7ccc(C(F)(F)F)cc7)CC6)c(OC)cc5N(C)C4C(O)(C(=O)OC)C1OC(C)=O)C32 (centres unmarked) | 3.72 |
| CC[C@]12C=CCN3CC[C@@]4(c5ccc(OC)cc5N(C)[C@H]4[C@@](O)(C(=O)OC)[C@@H]1OC(=O)CCCN1CCN(Cc4ccc(F)cc4)CC1)[C@@H]32 | 10.5 |

====

Below, each entry is listed with its recorded activity at 10 µM.
System: HCT-116
Assay: NCI60 one-dose screen (10 μM), Colon Cancer
Type: cell-based
Conditions: Homo sapiens; 10 μM; HCT-116, Colon Cancer; read-out: Growth percent rate

| COMPOUND | UNIT ABBREVIATION | activity at 10 µM |
| --- | --- | --- |
| CCC12C=CCN3CCC4(c5ccc(OC)cc5N(C)C4C(O)(C(=O)OC)C1OC(=O)CCCBr)C32 (stereo not drawn) | % | 87 |
| CC[C@]12C=CCN3CC[C@@]4(c5ccc(OC)cc5N(C)[C@H]4[C@@](O)(C(=O)OC)[C@@H]1OC(=O)CCCN1CCN(Cc4ccc(C(F)(F)F)cc4)CC1)[C@@H]32 | % | -89.3 |
| CC[C@]12C=CCN3CC[C@@]4(c5ccc(OC)cc5N(C)[C@H]4[C@@](O)(C(=O)OC)[C@@H]1OC(=O)CCCN1CCN(Cc4ccc(F)cc4)CC1)[C@@H]32 | % | 24.1 |
| CC[C@]12C=CCN3CC[C@@]4(c5ccc(OC)cc5N(C)[C@H]4[C@@](O)(C(=O)OC)[C@@H]1OC(=O)CCC(=O)N1CCN(C(c4ccc(F)cc4)c4ccc(F)cc4)CC1)[C@@H]32 | % | -32.4 |
| CC[C@]12C=CCN3CC[C@@]4(c5ccc(OC)cc5N(C)[C@H]4[C@@](O)(C(=O)OC)[C@@H]1OC(=O)CCCN1CCN(C(=O)c4ccco4)CC1)[C@@H]32 | % | 104 |
| CCC12C=CCN3CCC4(c5cc(NC(=O)CN6CCN(C)CC6)c(OC)cc5N(C)C4C(O)(C(=O)OC)C1OC(C)=O)C32 (stereo not drawn) | % | 101 |
| CCC12C=CCN3CCC4(c5ccc(OC)cc5N(C)C4C(O)(C(=O)OC)C1OC(=O)CCC(=O)O)C32 (stereo not drawn) | % | 98.6 |
| CC[C@]12C=CCN3CC[C@@]4(c5ccc(OC)cc5N(C)[C@H]4[C@@](O)(C(=O)OC)[C@@H]1OC(=O)CCC(=O)N1CCN(C)CC1)[C@@H]32 | % | 103 |
| CC[C@]12C=CCN3CC[C@@]4(c5ccc(OC)cc5N(C)[C@H]4[C@@](O)(C(=O)OC)[C@@H]1OC(=O)CCC(=O)N1CCN(Cc4ccc(F)cc4)CC1)[C@@H]32 | % | 67.8 |
